experiment-description: Acute toxicity, mice, oral
applied-conditions: mouse, in vivo, 7 days observation
Answer each item with its documented LD50 at 168 h.
Numbers only, in mg/kg.

Record excerpt, results attached:
molecule: COCc1cc(C(O)CNC(C)Cc2ccc(OC)cc2)ccc1O.O=C(O)/C=C/C(=O)O (stereo not drawn) [Compound A]
LD50 at 168 h / mg/kg: 1050

molecule: COCc1cc(C(O)CNC(C)Cc2ccc(O)cc2)ccc1O.O=C(O)C(=O)O (stereo not drawn) [Compound C]
LD50 at 168 h / mg/kg: 1200

Q: Supply recorded LD50 at 168 h for COCc1cc(C(O)CNC(C)Cc2ccc3c(c2)OCO3)ccc1O (stereo not drawn) [Compound B] here.
A: 1200
